target.entity: human S1P1 (Homo sapiens (Human))
Sequence (P21453 whole entry): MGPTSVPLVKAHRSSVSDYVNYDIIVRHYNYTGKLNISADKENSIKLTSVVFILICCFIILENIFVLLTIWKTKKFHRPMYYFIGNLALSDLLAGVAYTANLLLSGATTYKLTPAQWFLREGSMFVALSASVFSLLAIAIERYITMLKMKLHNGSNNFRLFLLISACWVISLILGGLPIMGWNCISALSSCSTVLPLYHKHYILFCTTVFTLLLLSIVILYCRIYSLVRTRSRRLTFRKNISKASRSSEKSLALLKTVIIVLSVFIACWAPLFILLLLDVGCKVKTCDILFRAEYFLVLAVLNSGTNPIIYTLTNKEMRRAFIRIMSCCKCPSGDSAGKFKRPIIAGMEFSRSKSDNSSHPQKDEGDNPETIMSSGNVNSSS
assay.explanation: S1P1 Binding Assay (33P-S1P radioligand competition)
test.context: membranes of CHO cells expressing human S1P1, 0.03 nM 33P-S1P; rounded to two digits
reported.metric: IC50 (nM)

(I) N[C@@H]1COc2cc(-c3noc(-c4onc(-c5ccccc5)c4C(F)(F)F)n3)ccc2[C@H]1O (racemic) [Example 4]
(II) O=C(O)[C@@H]1CCC[C@@H](N[C@@H]2COc3cc(-c4noc(-c5onc(-c6ccccc6)c5C(F)(F)F)n4)ccc3[C@@H]2O)C1 [Example 65]
(III) O=C(O)[C@H]1CCC[C@H](N[C@@H]2COc3cc(-c4noc(-c5onc(-c6ccccc6)c5C(F)(F)F)n4)ccc3[C@@H]2O)C1 [Example 57]
# input Sort the entries above by IC50, smallest first. List the labels, following the order given in the request.
# output III, II, I

(I) O=C(O)CN[C@@H]1COc2cc(-c3noc(-c4onc(-c5ccccc5)c4C(F)(F)F)n3)ccc2[C@@H]1O [Example 68]
(II) N[C@@H]1COc2cc(-c3noc(-c4onc(-c5ccccc5)c4C(F)(F)F)n3)ccc2[C@@H]1O [Example 9]
(III) O=C(O)C1(CN[C@@H]2COc3cc(-c4noc(-c5onc(-c6ccccc6)c5C(F)(F)F)n4)ccc3[C@@H]2O)CCCCC1 [Example 39]
(IV) O=C(O)C1(CN[C@@H]2COc3cc(-c4noc(-c5onc(-c6ccccc6)c5C(F)(F)F)n4)ccc3[C@@H]2O)CC1 [Example 30]
# input Highest IC50 first, then in falling order down to the smallest. List the labels, following the order given in the request.
# output III, II, IV, I
(III: 541 nM, II: 39 nM, IV: 13 nM, I: 3.8 nM)
